Field: refractive index. Provide a value for each of the compounds that follow.
assay: refractive index (Na D-line) (dimensionless); settings: 348.15 K; 101 kPa; Liquid; Standard Abbe refractometry
Please state the value as a number alone, without comment.

Inquiry: Value lookup for refractive index; key = CCn1cc[n+](C)c1.NCC(=O)[O-] [1-ethyl-3-methylimidazolium ammonioacetate]
Reply text: 1.50637

Inquiry: Value lookup for refractive index; key = CCn1cc[n+](C)c1.NCCS(=O)(=O)[O-] [1-ethyl-3-methylimidazolium taurinate]
Reply text: 1.4986

Inquiry: Value lookup for refractive index; key = CC[n+]1ccn(C)c1.N[C@@H](CO)C(=O)[O-] [3-ethyl-1-methyl-1H-imidazolium L-serinate]
Reply text: 1.5122

Inquiry: Value lookup for refractive index; key = CCn1cc[n+](C)c1.N#C[C-](C#N)C#N [1-ethyl-3-methyl-1H-imidazolium tricyanomethanide]
Reply text: 1.49593

Inquiry: Value lookup for refractive index; key = CCn1cc[n+](C)c1.O=C([O-])[C@@H]1CCCN1 [1-ethyl-3-methyl-1H-imidazolium L-prolinate]
Reply text: 1.50757

Inquiry: Value lookup for refractive index; key = CCn1cc[n+](C)c1.C[C@H](N)C(=O)[O-] [1-ethyl-3-methylimidazolium L-alaninate]
Reply text: 1.49795

====

details: 343.15 K; 101 kPa; Liquid; Stabinger Viscometer
PROPERTY NAME: viscosity (mPa·s)
Value expressed in mPa·s; do not type the unit.

Inquiry: Value lookup for viscosity; key = CCn1cc[n+](C)c1.O=C([O-])[C@@H]1CCCN1 [1-ethyl-3-methyl-1H-imidazolium L-prolinate]
Reply text: 67.69

Inquiry: Value lookup for viscosity; key = CCn1cc[n+](C)c1.NCCS(=O)(=O)[O-] [1-ethyl-3-methylimidazolium taurinate]
Reply text: 46.1

Inquiry: Value lookup for viscosity; key = CCn1cc[n+](C)c1.C[C@H](N)C(=O)[O-] [1-ethyl-3-methylimidazolium L-alaninate]
Reply text: 27.72

Inquiry: Value lookup for viscosity; key = CC[n+]1ccn(C)c1.N[C@@H](CO)C(=O)[O-] [3-ethyl-1-methyl-1H-imidazolium L-serinate]
Reply text: 93.36

====

settings: 308.15 K; 101 kPa; Liquid; Stabinger Viscometer
± gives the expanded uncertainty stated by the source.
PROPERTY NAME: viscosity
Answer with the figure and its unit, nothing else.

Inquiry: Value lookup for viscosity; key = CCn1cc[n+](C)c1.C[C@H](N)C(=O)[O-] [1-ethyl-3-methylimidazolium L-alaninate]
Reply text: 137.47 ± 6.2 mPa·s

Inquiry: Value lookup for viscosity; key = CC[n+]1ccn(C)c1.N[C@@H](CO)C(=O)[O-] [3-ethyl-1-methyl-1H-imidazolium L-serinate]
Reply text: 882.82 ± 88 mPa·s

Inquiry: Value lookup for viscosity; key = CCn1cc[n+](C)c1.O=C([O-])[C@@H]1CCCN1 [1-ethyl-3-methyl-1H-imidazolium L-prolinate]
Reply text: 517.61 ± 42 mPa·s

Inquiry: Value lookup for viscosity; key = CCn1cc[n+](C)c1.NCCS(=O)(=O)[O-] [1-ethyl-3-methylimidazolium taurinate]
Reply text: 258.04 ± 16 mPa·s

====

details: 323.15 K; 101 kPa; Liquid; Stabinger Viscometer
Field: viscosity. Provide a value for each of the compounds that follow.
Value expressed in mPa·s; do not type the unit.

Inquiry: Value lookup for viscosity; key = CCn1cc[n+](C)c1.C[C@H](N)C(=O)[O-] [1-ethyl-3-methylimidazolium L-alaninate]
Reply text: 62.21

Inquiry: Value lookup for viscosity; key = CC[n+]1ccn(C)c1.N[C@@H](CO)C(=O)[O-] [3-ethyl-1-methyl-1H-imidazolium L-serinate]
Reply text: 287.6

Inquiry: Value lookup for viscosity; key = CCn1cc[n+](C)c1.NCCS(=O)(=O)[O-] [1-ethyl-3-methylimidazolium taurinate]
Reply text: 110.35

Inquiry: Value lookup for viscosity; key = CCn1cc[n+](C)c1.O=C([O-])[C@@H]1CCCN1 [1-ethyl-3-methyl-1H-imidazolium L-prolinate]
Reply text: 188.66

====

settings: 298.15 K; 101.33 kPa; Liquid; Vibrating tube method
Numbers after ± are expanded uncertainties.
Field: mass density. Provide a value for each of the compounds that follow.
Answer with the figure and its unit, nothing else.

Inquiry: Value lookup for mass density; key = CCn1cc[n+](C)c1.C[C@H](N)C(=O)[O-] [1-ethyl-3-methylimidazolium L-alaninate]
Reply text: 1123 ± 13 kg/m3

Inquiry: Value lookup for mass density; key = CCn1cc[n+](C)c1.NCC(=O)[O-] [1-ethyl-3-methylimidazolium ammonioacetate]
Reply text: 1161.2 ± 10 kg/m3

Inquiry: Value lookup for mass density; key = CCn1cc[n+](C)c1.NCCS(=O)(=O)[O-] [1-ethyl-3-methylimidazolium taurinate]
Reply text: 1251.5 ± 15 kg/m3

Inquiry: Value lookup for mass density; key = CC[n+]1ccn(C)c1.N[C@@H](CO)C(=O)[O-] [3-ethyl-1-methyl-1H-imidazolium L-serinate]
Reply text: 1203.7 ± 14 kg/m3

Inquiry: Value lookup for mass density; key = CCn1cc[n+](C)c1.O=C([O-])[C@@H]1CCCN1 [1-ethyl-3-methyl-1H-imidazolium L-prolinate]
Reply text: 1142.8 ± 7.2 kg/m3

====

Field: mass density. Provide a value for each of the compounds that follow.
conditions: 308.15 K; 101.33 kPa; Liquid; Vibrating tube method
Value expressed in kg/m3; do not type the unit.

Inquiry: Value lookup for mass density; key = CCn1cc[n+](C)c1.C[C@H](N)C(=O)[O-] [1-ethyl-3-methylimidazolium L-alaninate]
Reply text: 1116.6

Inquiry: Value lookup for mass density; key = CCn1cc[n+](C)c1.O=C([O-])[C@@H]1CCCN1 [1-ethyl-3-methyl-1H-imidazolium L-prolinate]
Reply text: 1136.4

Inquiry: Value lookup for mass density; key = CCn1cc[n+](C)c1.NCC(=O)[O-] [1-ethyl-3-methylimidazolium ammonioacetate]
Reply text: 1155

Inquiry: Value lookup for mass density; key = CC[n+]1ccn(C)c1.N[C@@H](CO)C(=O)[O-] [3-ethyl-1-methyl-1H-imidazolium L-serinate]
Reply text: 1197.3

Inquiry: Value lookup for mass density; key = CCn1cc[n+](C)c1.NCCS(=O)(=O)[O-] [1-ethyl-3-methylimidazolium taurinate]
Reply text: 1244.8

====

assay: refractive index (Na D-line) (dimensionless); conditions: 318.15 K; 101 kPa; Liquid; Standard Abbe refractometry
PROPERTY NAME: refractive index
Please state the value as a number alone, without comment.

Inquiry: Value lookup for refractive index; key = CCn1cc[n+](C)c1.O=C([O-])[C@@H]1CCCN1 [1-ethyl-3-methyl-1H-imidazolium L-prolinate]
Reply text: 1.51591

Inquiry: Value lookup for refractive index; key = CCn1cc[n+](C)c1.NCC(=O)[O-] [1-ethyl-3-methylimidazolium ammonioacetate]
Reply text: 1.5145

Inquiry: Value lookup for refractive index; key = CCn1cc[n+](C)c1.N#C[C-](C#N)C#N [1-ethyl-3-methyl-1H-imidazolium tricyanomethanide]
Reply text: 1.50595

Inquiry: Value lookup for refractive index; key = CC[n+]1ccn(C)c1.N[C@@H](CO)C(=O)[O-] [3-ethyl-1-methyl-1H-imidazolium L-serinate]
Reply text: 1.52022

Inquiry: Value lookup for refractive index; key = CCn1cc[n+](C)c1.C[C@H](N)C(=O)[O-] [1-ethyl-3-methylimidazolium L-alaninate]
Reply text: 1.50651

Inquiry: Value lookup for refractive index; key = CCn1cc[n+](C)c1.NCCS(=O)(=O)[O-] [1-ethyl-3-methylimidazolium taurinate]
Reply text: 1.5068

====

assay: refractive index (Na D-line) (dimensionless); details: 328.15 K; 101 kPa; Liquid; Standard Abbe refractometry
± gives the expanded uncertainty stated by the source.
PROPERTY NAME: refractive index

Inquiry: Value lookup for refractive index; key = CCn1cc[n+](C)c1.O=C([O-])[C@@H]1CCCN1 [1-ethyl-3-methyl-1H-imidazolium L-prolinate]
Reply text: 1.51315 ± 0.00069

Inquiry: Value lookup for refractive index; key = CCn1cc[n+](C)c1.NCC(=O)[O-] [1-ethyl-3-methylimidazolium ammonioacetate]
Reply text: 1.51179 ± 0.00087

Inquiry: Value lookup for refractive index; key = CCn1cc[n+](C)c1.NCCS(=O)(=O)[O-] [1-ethyl-3-methylimidazolium taurinate]
Reply text: 1.50403 ± 0.0019

Inquiry: Value lookup for refractive index; key = CCn1cc[n+](C)c1.C[C@H](N)C(=O)[O-] [1-ethyl-3-methylimidazolium L-alaninate]
Reply text: 1.50358 ± 0.0011

Inquiry: Value lookup for refractive index; key = CC[n+]1ccn(C)c1.N[C@@H](CO)C(=O)[O-] [3-ethyl-1-methyl-1H-imidazolium L-serinate]
Reply text: 1.51755 ± 0.0041

Inquiry: Value lookup for refractive index; key = CCn1cc[n+](C)c1.N#C[C-](C#N)C#N [1-ethyl-3-methyl-1H-imidazolium tricyanomethanide]
Reply text: 1.50255 ± 0.00063

====

conditions: 348.15 K; 101.33 kPa; Liquid; Vibrating tube method
± gives the expanded uncertainty stated by the source.
Field: mass density. Provide a value for each of the compounds that follow.
Answer with the figure and its unit, nothing else.

Inquiry: Value lookup for mass density; key = CCn1cc[n+](C)c1.NCC(=O)[O-] [1-ethyl-3-methylimidazolium ammonioacetate]
Reply text: 1130.7 ± 9.9 kg/m3

Inquiry: Value lookup for mass density; key = CC[n+]1ccn(C)c1.N[C@@H](CO)C(=O)[O-] [3-ethyl-1-methyl-1H-imidazolium L-serinate]
Reply text: 1172.8 ± 14 kg/m3

Inquiry: Value lookup for mass density; key = CCn1cc[n+](C)c1.C[C@H](N)C(=O)[O-] [1-ethyl-3-methylimidazolium L-alaninate]
Reply text: 1092.1 ± 12 kg/m3

Inquiry: Value lookup for mass density; key = CCn1cc[n+](C)c1.O=C([O-])[C@@H]1CCCN1 [1-ethyl-3-methyl-1H-imidazolium L-prolinate]
Reply text: 1112 ± 7 kg/m3

Inquiry: Value lookup for mass density; key = CCn1cc[n+](C)c1.NCCS(=O)(=O)[O-] [1-ethyl-3-methylimidazolium taurinate]
Reply text: 1219.9 ± 14 kg/m3
